tested on: SKBR3-P; assay: area under growth-rate inhibition curve (AUC GRI) (dimensionless (GR-based AUC)); higher = less growth inhibition; conditions: exposure time: 72 h; concentrations: 0.1, 1, 10 uM
readout name: area under growth-rate inhibition curve
Lab note: write the figure by itself, no unit.

Use the examples below as a reference point.
INSERT INTO assay_data (molecule, assay_value) VALUES
  ('N#Cc1cc(CN2CCC(Nc3ncnc4sc(Cl)cc34)CC2)ccc1F.O=C(O)/C=C\C(=O)O', 0.839),
  ('CN(C)CCC[C@@]1(c2ccc(F)cc2)OCc2cc(C#N)ccc21.O=C(O)C(=O)O [Escitalopram Oxalate]', 0.985);

Please report area under growth-rate inhibition curve for the following molecule: CC(C)N(CCC(c1ccccc1)c1cc(CO)ccc1O)C(C)C (stereo not drawn)
0.957

Please report area under growth-rate inhibition curve for the following molecule: CC(C)C(=O)OCC(=O)[C@@]12O[C@H](C3CCCCC3)O[C@@H]1C[C@H]1[C@@H]3CCC4=CC(=O)C=C[C@]4(C)[C@H]3[C@@H](O)C[C@@]12C [Ciclesonide]
0.955

Please report area under growth-rate inhibition curve for the following molecule: CC(=O)OCC(=O)NCCCOc1cccc(CN2CCCCC2)c1.[Cl-].[H+] [Roxatidine Acetate HCl]
0.991

---

Entries and their area under growth-rate inhibition curve values follow.
tested on: SKBR3-P; assay: area under growth-rate inhibition curve (AUC GRI) (dimensionless (GR-based AUC)); higher = less growth inhibition; conditions: exposure time: 72 h; concentrations: 0.1, 1, 10 uM
Lab note: write the figure by itself, no unit.

Use the examples below as a reference point.
INSERT INTO measurements (compound, readout_name, assay_value) VALUES
  ('CCOc1ccc(Cc2cc([C@@H]3O[C@H](SC)[C@@H](O)[C@H](O)[C@H]3O)ccc2Cl)cc1', 'area under growth-rate inhibition curve', 1.02),
  ('C[C@]12CCC(=O)C=C1CC[C@H]1[C@@H]3CC[C@@](C)(O)[C@@]3(C)C[C@H](O)[C@@]12F', 'area under growth-rate inhibition curve', 1.01);

Please report area under growth-rate inhibition curve for the following compound: `O=C1CCc2cc(OCCCCc3nnnn3C3CCCCC3)ccc2N1`
1.03

Please report area under growth-rate inhibition curve for the following compound: CCN(C)C(=O)Oc1cccc(C(C)N(C)C)c1.O=C(O)C(O)C(O)C(=O)O (stereo not given) [Rivastigmine Tartrate]
1.02

Please report area under growth-rate inhibition curve for the following compound: COc1cc2nc(N3CCN(C(=O)C4CCCO4)CC3)nc(N)c2cc1OC.O.[Cl-].[H+] (stereo not given) [Terazosin HCl]
1.03

---

system: SKBR3-P; test: area under growth-rate inhibition curve (AUC GRI) (dimensionless (GR-based AUC)); higher = less growth inhibition; settings: exposure time: 72 h; concentrations: 0.1, 1, 10 uM
readout name: area under growth-rate inhibition curve
Lab note: write the figure by itself, no unit.

Use the examples below as a reference point.
INSERT INTO assay_data (molecule, tested_target, assay_value) VALUES
  ('CCN(CC)CCOc1ccc(C(=C(Cl)c2ccccc2)c2ccccc2)cc1.O=C(O)CC(O)(CC(=O)O)C(=O)O [Clomifene citrate]', 'SKBR3-P', 0.914),
  ('O=C(CS(=O)Cc1ccco1)NC/C=C\COc1cc(CN2CCCCC2)ccn1 (centres undefined) [Lafutidine]', 'SKBR3-P', 0.987),
  ('CC(C)NCC(O)c1ccc(O)c(O)c1.[Cl-].[H+] (centres undefined) [Isoprenaline HCl]', 'SKBR3-P', 0.995);

Shift focus to the following entry.
Please report area under growth-rate inhibition curve for the following molecule: O=C(CCCN1CCC(O)(c2ccc(Cl)cc2)CC1)c1ccc(F)cc1.[Cl-].[H+] [Haloperidol hydrochloride]
1.01
